- PROCEDURE DETAILS: P-glycoprotein substrates identified in KB-8-5-11 adenocarcinoma cell line, qHTS therapeutic library screen (AID 1346987); also: nearly all actives have a fitted effect of over 65% in size
- SETUP CONDITIONS: KB-8-5-11 (P-gp overexpressing) viability, CellTiter-Glo, 72 h; series mostly up to 44.5 µM
Results filed as inconclusive are left out. Active and inactive are the calls of the source. Calls follow the shape of the dose curve; as a rule, active = well fitted inhibition curve with a large enough effect; inconclusive = small, poorly fitted or top-dose-only effect; inactive = flat fitted curve, though single readings scatter.
I would appreciate it if you answered using one of these outcomes: active, inactive

Some solved cases for reference:
MOLECULE	GROUP
Cc1ccc(C(C)C)cc2c(C)ccc1-2	inactive
CCCCC(CC)COC(=O)c1ccccc1O (centres undefined)	inactive
CCN(CC)CCSC(=O)C(c1ccccc1)c1ccccc1	inactive
C=Cc1c(C)c2cc3[nH]c(cc4nc(cc5nc(cc1[nH]2)C(C)=C5CCC(=O)O)C(CCC(=O)O)=C4C)c(C)c3C=C	inactive
O=C(O)CN1C(=O)c2cccc3cccc(c23)C1=O	inactive

Incoming: Can you look up the reported call for Cn1c(=O)c2c(ncn2CC2OCCO2)n(C)c1=O for me?
Outgoing: inactive

Incoming: Give the logged outcome of this assay for the following molecule: CCN(CC)CCCC(C)Nc1c2ccc(Cl)cc2nc2ccc(OC)cc12 (centres undefined)
Outgoing: active

Incoming: Hey, what did the test say about Cc1cccc(Nc2cc(Cl)nc(SCC(=O)O)n2)c1C ?
Outgoing: inactive

Incoming: Each molecule tested received a call. Report the one for CCCCCCCCCCCCCCCCCCOCC(O)CO (centres undefined) .
Outgoing: inactive

Incoming: What did the test return for CCOC(=O)[C@H](CCc1ccccc1)N[C@@H](C)C(=O)N1C(=O)N(C)C[C@H]1C(=O)O ?
Outgoing: inactive

Incoming: Lab log entry: CN(C)CCCN1c2ccccc2CCc2ccccc21 — outcome as called in the assay?
Outgoing: active

Incoming: Which outcome was entered for the molecule O=C(O)[C@@H]1CSCN1 in this test?
Outgoing: inactive

Incoming: # outcome recorded in this test, key = CC(=O)NC(Cc1ccccc1)C(=O)O (centres undefined)
Outgoing: inactive

Incoming: Any idea what this test logged for COc1ccc(Cl)cc1C(=O)NCCc1ccc(S(=O)(=O)NC(=O)NC2CCCCC2)cc1 ?
Outgoing: inactive

Incoming: For Cc1cc(CC(=O)O)n(C)c1C(=O)c1ccc(Cl)cc1 , which call appears in the assay record?
Outgoing: inactive

Incoming: Could you kindly confirm the outcome this assay logged for O=C(O)c1ccccn1 ?
Outgoing: inactive

Incoming: Outcome logged for Nc1ccc(S(=O)(=O)Nc2nccs2)cc1 in this assay:
Outgoing: inactive

Measured values drawn from PubChem BioAssay (NCATS) for this set.
